Data origin, for the record: patent US7709443B2

- Tested on: PC-3 (Prostate) human cancer cell line
- measurement.setup: PC-3, 10 μM, three days
Square brackets hold non-standard residues; d marks the D form. Peptide text beside a SMILES is read from it. NMePhe(4-Br) = CN[C@@H](Cc1ccc(Br)cc1)C(=O)O; Phe(4-Br) = N[C@@H](Cc1ccc(Br)cc1)C(=O)O; NMeF = CN[C@@H](Cc1ccccc1)C(=O)O; NMeL = CN[C@@H](CC(C)C)C(=O)O
I'd be grateful if you could share measured Fold Induction Over DMSO control for these entries.

Lookup: Entry under review: CC(C)C[C@@H]1NC(=O)[C@H](C(C)C)NC(=O)[C@H](CC(C)C)N(C)C(=O)[C@H](CC(C)C)NC(=O)[C@H](Cc2ccccc2)NC1=O [Compound 1d] (cyclo(FL[NMeL]VL)) . Reported Fold Induction Over DMSO control?
Found: 0.52

Lookup: Entry under review: CC(C)C[C@@H]1NC(=O)[C@H](CC(C)C)NC(=O)[C@H](Cc2ccc(Br)cc2)N(C)C(=O)[C@H](CC(C)C)NC(=O)[C@H](C(C)C)NC1=O [Compound 1k] (cyclo([NMePhe(4-Br)]LLVL)) . Reported Fold Induction Over DMSO control?
Found: 0.66

Lookup: Entry under review: CC(C)C[C@@H]1NC(=O)[C@H](C(C)C)NC(=O)[C@H](CC(C)C)N(C)C(=O)[C@H](CC(C)C)NC(=O)[C@H](Cc2ccc(Br)cc2)NC1=O [Compound 1e] (cyclo([Phe(4-Br)]L[NMeL]VL)) . Reported Fold Induction Over DMSO control?
Found: 0.82

Lookup: Entry under review: CC(C)C[C@@H]1NC(=O)[C@H](CC(C)C)NC(=O)[C@H](Cc2ccccc2)N(C)C(=O)[C@H](CC(C)C)NC(=O)[C@H](C(C)C)NC1=O [Compound 1j] (cyclo([NMeF]LLVL)) . Reported Fold Induction Over DMSO control?
Found: 0.8

Lookup: Entry under review: CC(C)C[C@@H]1NC(=O)[C@H](Cc2ccccc2)NC(=O)[C@H](CC(C)C)N(C)C(=O)[C@H](C(C)C)NC(=O)[C@H](CC(C)C)NC1=O [Compound 1h] (cyclo(FLLV[NMeL])) . Reported Fold Induction Over DMSO control?
Found: 0.64

Lookup: Entry under review: CC(C)C[C@@H]1NC(=O)[C@H](C(C)C)NC(=O)[C@H](CC(C)C)NC(=O)[C@H](CC(C)C)N(C)C(=O)[C@H](Cc2ccccc2)NC1=O [Compound 1b] (cyclo(F[NMeL]LVL)) . Reported Fold Induction Over DMSO control?
Found: 0.81
